System: UACC-257
Assay: NCI tumour cell line growth inhibition, 48 h
Activity calls are given as the source filed them. Cut-off read from the data, not from the text of the source: active = GI50 up to about 1.1 µM and inactive = higher.
measured_endpoint: GI50

molecule	reading
COc1ccc(C2=NC(C)(C)CO2)cc1	> 100 µM (inactive)
COc1ccc(-c2oc3c(OC)c(OC)c(OC)c(OC)c3c(=O)c2OC)cc1OC	53.1 µM (inactive)

Hey, UACC-257 data for `COc1cc(C(=O)C/C(CCCC(=O)Nc2ccccc2[N+](=O)[O-])=N/NC(=O)c2cc3ccccc3cc2O)ccc1O` : GI50 came out at 27.7 µM (inactive)

GI50 on UACC-257 for COc1ccc(/C=C2\CCC(CN3CCOCC3)C2=O)cc1 (stereo not given) is 2.37 µM (inactive)

Param item: `COc1ccc(C(c2c(O)c3ccccc3n(C)c2=O)c2c(O)c3ccccc3n(C)c2=O)cc1` ; param system: UACC-257; output GI50: 19.5 µM (inactive)

// GI50 (UACC-257) for `CC(=O)Oc1cc2oc(=O)cc(C)c2cc1OC(C)=O` = 48.9 µM (inactive)

Item `S=c1nc(Nc2ccc(Cl)cc2)c2c3c(sc2[nH]1)CCCC3` was tested on UACC-257; the reported GI50 is > 100 µM (inactive)

Field GI50 (system: UACC-257) for entry O=S1OC[C@H](CCCl)O1 (stereo not given in full) = > 100 µM (inactive)

Form: item `O=C(N/N=C/c1cc(Cl)cc(Cl)c1O)c1ccccc1O` ; test system UACC-257; GI50: 2.04 µM (inactive)

GET /values?item= `O=C1/C(=C/c2ccc(Cl)cc2)CSc2ccccc21` &system= UACC-257 returns GI50: 12.7 µM (inactive)

---

System: SK-MEL-28
Assay: NCI tumour cell line growth inhibition, 48 h
Active and inactive are the calls of the source. No stated cut-off is given here; in the data, active = GI50 up to about 1.1 µM and inactive = higher.
measured_endpoint: GI50

Example cases with answers are listed next.
molecule	reading
CCNCCNC(=O)c1ccc(I)cc1	> 100 µM (inactive)
COc1ccc(/C=C/[N+](=O)[O-])cc1	5.81 µM (inactive)
FC1(F)SC2CCCCCCCCCCC2C1(F)F (configuration not stated)	18.5 µM (inactive)
CC(=O)NC1C(O)C(O)C(CO)OC1n1nc(SCc2ccccc2)c(=O)[nH]c1=O (configuration not stated)	> 100 µM (inactive)

Per the reported SK-MEL-28 data, `O=C1CSC(=S)N1c1ccc(F)cc1F` has GI50 of 78.7 µM (inactive)

Fill in: SK-MEL-28 GI50 for `CN(NC(=O)c1cccs1)C1=NCCN1` = > 100 µM (inactive)

# value of GI50, SK-MEL-28, item `O=S1(=O)c2cnccc2N=C(NCc2cccc3ccccc23)N1c1ccccc1` = > 100 µM (inactive)

---

System: DMS-114
Experiment: NCI tumour cell line growth inhibition, 48 h
Calls of active or inactive are those of the source. Rule as the data show it: active = GI50 up to about 1.1 µM and inactive = higher.
// one of active, inactive, no free text

compound	assigned_label
Nc1nc(SCCNC(=O)CCc2ccc(O)cc2)nc2c1ncn2C1OC(CO)C(O)C1O (stereo not drawn)	inactive
O=C(CC/C(CC(=O)c1ccc(Cl)cc1)=N/O)Nc1ccc(Cl)c(Cl)c1	inactive
CC/C=C1\N=C(c2ccc(Cl)cc2)OC1=O	inactive
COc1ccc(C(c2c(O)c3ccccc3n(C)c2=O)c2c(O)c3ccccc3n(C)c2=O)cc1	inactive
CC(=O)OC1C(O)C(C)OC(OC(=O)C2CCC3C(C2)OC2(CC(OC(=O)/C=C/c4ccccc4)C(C)CO2)C32CO2)C1OC1OC(C)C(O)C(O)C1O (stereo not drawn)	active

Query: Give the logged outcome of this assay for the following compound: `Nc1nc(N)c(CCCCc2ccccc2)c(/C=C/c2ccc([N+](=O)[O-])cc2)n1`
Result: inactive

Query: For C=CCC1(CN(C)C)CC/C(=C\c2ccc(OC)cc2)C1=O (stereo not drawn) , what call appears in the results of this test?
Result: inactive

Query: Dear all, I need the recorded test outcome for Cc1ccc(NC(=O)C(=O)C(C(=O)c2ccc3ccccc3c2)C2OC(=O)c3ccccc32)c(C)c1 (stereo not drawn) , thank you.
Result: inactive

Query: # lookup: test call for `O=c1c2ccccc2c2c3c1cccc3c1cccc3c(=O)c4ccccc4c2c31`
Result: inactive

Query: Field: outcome | Entry: O=C1NC2(CCCCC2)C2CCCCC=C12 (stereo not drawn)
Result: inactive

Query: Record lookup: outcome of this test for O=C1C2=C(c3ccccc31)C(c1ccc(F)cc1)N1C(=O)CCSC1=N2 (stereo not drawn) ?
Result: inactive

Query: Write down the call the test reported for this compound. Item: [O-][S+]1[C@H](c2ccccc2)c2c(-c3ccccc3)sc(-c3ccccc3)c2[C@@H]1c1ccccc1 (stereo partly drawn)
Result: inactive

Query: // param item: `COc1ccc2c3c(c(C(=O)c4ccccc4)oc13)CCC2` ; yields the recorded call
Result: inactive

Query: Hello, I am checking results. What call was entered for c1ccc(C2SCc3nc4ccccc4n32)cc1 (stereo not drawn) ?
Result: inactive

Query: Any idea what this test logged for `COc1cc(Oc2c(O)c(C)c(OC)c(C(C)=O)c2O)c(C(C)=O)c(O)c1C` ?
Result: inactive

Query: Recorded test call requested for `CC#COS(=O)(=O)c1ccc(C)cc1`
Result: inactive

Query: recorded result category for `O=C1COc2cc(NC(=S)Nc3ccccc3)ccc2N1` in this test
Result: inactive

Values compiled from ChEMBL document CHEMBL1201862.
